# EXPERIMENTAL_TARGET: T1, Recombinant human CD8ab protein (extracellular domains of CD8a and CD8b with leucine zippers and tags) (human, UniProt P01732 22-182; P10966 22-170)
# T1 construct: extracellular domain; Secreted from HEK293 cells; also called recombinant CD8ab; soluble CD8ab antigen; not shown: acidic leucine zipper; 8x Histidine tag; basic leucine zipper; Strep-tag II
# T1 sequence (P01732 22-182, chain 1 of 2): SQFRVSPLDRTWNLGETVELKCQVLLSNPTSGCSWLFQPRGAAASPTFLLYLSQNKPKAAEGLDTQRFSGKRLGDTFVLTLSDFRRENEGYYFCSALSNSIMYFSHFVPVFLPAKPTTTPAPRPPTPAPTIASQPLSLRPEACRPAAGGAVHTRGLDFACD
# T1 sequence (P10966 22-170, chain 2 of 2): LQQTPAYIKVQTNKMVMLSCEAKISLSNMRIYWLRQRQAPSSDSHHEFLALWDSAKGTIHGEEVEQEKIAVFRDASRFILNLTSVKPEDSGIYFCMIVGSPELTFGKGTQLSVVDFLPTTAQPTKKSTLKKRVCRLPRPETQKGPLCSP
# MEASUREMENT_DESCRIPTION: SPR (Biacore T200, 37 C), antibody captured by anti-human IgG Fc, soluble CD8ab as analyte, 1:1 model
Measured koff accompanies every entry in the list below.
Return type: number; implicit unit s⁻¹.

Here are 4 binders together with their reported answers.
BINDER	koff (s⁻¹)
xhCD8v1 (antibody, V domains shown, Mouse monoclonal antibody against CD8b; also called mouse monoclonal antibody xhCD8v1; xCD8v1) VH: QVHLQQSGPELVKPGASVKMSCKTSGYTFTKYTMHWVKQGHEESLEWIGHFNPNNDETKYNQKFTGKATLTVDKSSTTAYMELRSLTSDDSALYYCARDGLGLRLFADWGQGTLITVSA VL: DIQMTQSPASLSASVGETVTITCGASENIYGALNWYQRKQGKSPQLLIFGATNLADGVSSRFSGSGSDRQYSLKISSLHPDDVATYYCQNILDTPWTFGGGTKLEIK	0.0183
xhCD8v2 (antibody, human IgG1, V domains shown) VH: QVQLVQSGAEVKKPGSSVKVSCKASGYRFHNFAISWVRQAPGQGLEWMGGIIPGHAKANYAQKFQGRVTITADESTSTAYMELSSLRSEDTAVYYCARDGLGIRLFADWGQGTLVTVSS VL: DIQMTQSPSSLSASVGDRVTITCRASQEIYGALNWYQQKPGKAPKLLIYGATNLQSGVPSRFSGSGSGTDFTLTISSLQPEDFATYYCQDIYDAPWTFGGGTKVEIK	0.02
xhCD8v3 (antibody, human IgG1, V domains shown) VH: QVQLVQSGAEVKKPGSSVKVSCKASGSRFYKFAISWVRQAPGQGLEWMGGIIPGHAKANYAQKFQGRVTITADESTSTAYMELSSLRSEDTAVYYCARDGLGIRLFADWGQGTLVTVSS VL: DIQMTQSPSSLSASVGDRVTITCRASQEIYGALNWYQQKPGKAPKLLIYGATNLQSGVPSRFSGSGSGTDFTLTISSLQPEDFATYYCQDIYDAPWTFGGGTKVEIK	0.0379
xhCD8v7 (antibody, human IgG1, V domains shown) VH: EVQLVESGGGLVQPGRSLRLSCAASGFTFDDYAMHWVRQAPGKGLEWVAVISYDGSNKYYADSVKGRFTISRDNSKNTLYLQMNSLRAEDTAVYYCAKDRIGWYDYDAFDIWGQGTMVTVSS VL: EIVLTQSPATLSVTPGEGATLSCRASHSVGSNLAWYQQKPGQAPRLLIYDASNRATGIPARFSGSGSGTDFTLTISSLEPEDLAVYYCQQRSNWPPTFGQGTRLEIK	0.000922

What value of koff has been recorded for this entry: xhCD8v5 (antibody, human IgG1, V domains shown) VH: QVQLVQSGAEVKKPGSSVKVSCKASGSGFRGHAISWVRQAPGQGLEWMGGIIPGHAKANYAQKFQGRVTITADESTSTAYMELSSLRSEDTAVYYCARDGLGIRLFADWGQGTLVTVSS VL: DIQMTQSPSSLSASVGDRVTITCRASQKIYGALNWYQQKPGKAPKLLIYGATNLQSGVPSRFSGSGSGTDFTLTISSLQPEDFATYYCQNTYDTPWTFGGGTKVEIK
0.0419

Look up koff for this binder: xhCD8v4 (antibody, human IgG1, V domains shown) VH: QVQLVQSGAEVKKPGSSVKVSCKASGYTFTKYAISWVRQAPGQGLEWMGGIIPGHAKANYAQKFQGRVTITADESTSTAYMELSSLRSEDTAVYYCARDGLGIRLFADWGQGTLVTVSS VL: DIQMTQSPSSLSASVGDRVTITCRASQKIYGALNWYQQKPGKAPKLLIYGATNLQSGVPSRFSGSGSGTDFTLTISSLQPEDFATYYCQNTYDTPWTFGGGTKVEIK
0.0493
